The measured values listed here are drawn from patent US20230364070A1.

Recorded measurements of pIC50, one per entry
molecular target: Ba/F3 cells with EGFR WT (Homo sapiens, UniProt P00533); assay: EGFR activity: Ba/F3 cell viability (CellTiter-Glo, 72 h), EGFR WT; settings: read-out: BaF3 WT IC50
Sequence (P00533 25-1210): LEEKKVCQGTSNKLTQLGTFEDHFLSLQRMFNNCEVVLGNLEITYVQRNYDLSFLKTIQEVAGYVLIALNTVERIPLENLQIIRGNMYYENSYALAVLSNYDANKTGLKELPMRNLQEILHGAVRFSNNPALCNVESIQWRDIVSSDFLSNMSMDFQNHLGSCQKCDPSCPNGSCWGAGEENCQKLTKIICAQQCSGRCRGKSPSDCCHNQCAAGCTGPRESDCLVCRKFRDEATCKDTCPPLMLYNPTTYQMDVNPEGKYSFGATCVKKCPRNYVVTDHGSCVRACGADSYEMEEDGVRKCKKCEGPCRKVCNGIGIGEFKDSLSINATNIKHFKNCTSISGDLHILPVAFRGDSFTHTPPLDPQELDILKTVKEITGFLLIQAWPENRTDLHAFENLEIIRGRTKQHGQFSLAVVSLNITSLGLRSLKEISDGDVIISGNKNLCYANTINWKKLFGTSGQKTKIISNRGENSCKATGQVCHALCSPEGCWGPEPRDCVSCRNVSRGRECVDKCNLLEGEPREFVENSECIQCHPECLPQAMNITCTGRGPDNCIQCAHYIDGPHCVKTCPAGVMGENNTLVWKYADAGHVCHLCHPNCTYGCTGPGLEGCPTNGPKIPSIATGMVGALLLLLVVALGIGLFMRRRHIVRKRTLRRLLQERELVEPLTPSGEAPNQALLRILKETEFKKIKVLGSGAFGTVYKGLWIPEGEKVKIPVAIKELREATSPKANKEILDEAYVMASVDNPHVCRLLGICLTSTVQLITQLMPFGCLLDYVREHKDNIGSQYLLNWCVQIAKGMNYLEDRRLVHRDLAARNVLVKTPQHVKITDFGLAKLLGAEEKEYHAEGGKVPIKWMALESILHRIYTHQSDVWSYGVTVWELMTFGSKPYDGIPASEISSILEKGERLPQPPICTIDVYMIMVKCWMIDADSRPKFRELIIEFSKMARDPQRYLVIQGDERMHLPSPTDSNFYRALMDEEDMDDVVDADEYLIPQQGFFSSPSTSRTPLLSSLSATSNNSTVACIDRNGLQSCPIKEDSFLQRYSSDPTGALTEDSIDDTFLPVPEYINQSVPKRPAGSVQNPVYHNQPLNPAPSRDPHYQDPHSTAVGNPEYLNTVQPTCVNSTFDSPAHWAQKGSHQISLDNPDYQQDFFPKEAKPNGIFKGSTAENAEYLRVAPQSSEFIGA
pIC50: −log10 of the molar value.

Some solved cases for reference:
INSERT INTO results (compound, assay_endpoint, result) VALUES
  ('CCc1c(F)cccc1Nc1c(-c2ccncc2OC[C@]2(C)CCN2C(=O)/C=C/CN(C)C)[nH]c2c1C(=O)NCC2', 'pIC50', '6.00 to 7.00'),
  ('C=C(F)C(=O)N1CC[C@@H]1COc1cnccc1-c1[nH]c2c(c1Nc1cc(F)cc(F)c1OC)C(=O)NCC2', 'pIC50', '6.00 to 7.00'),
  ('CC#CC(=O)N1CC[C@@H]1COc1cnccc1-c1[nH]c2cc[nH]c(=O)c2c1Nc1cccc(Cl)c1OC', 'pIC50', '< 6.00'),
  ('COc1c(F)cccc1Nc1c(-c2ccncc2OCc2ccnn2C)[nH]c2c1C(=O)NCC2', 'pIC50', '< 6.00'),
  ('COc1c(F)cccc1Nc1c(-c2ccncc2OC[C@]2(C)CCN2C(=O)/C=C/CN(C)C)[nH]c2c1C(=O)NCC2', 'pIC50', '< 6.00');

Query: Retrieve pIC50 measured for COC(C)C#Cc1cnccc1-c1[nH]c2c(c1Nc1cccc(F)c1C)C(=O)NCC2 (centres unmarked) and print it.
Response: < 6.00

Query: Retrieve pIC50 measured for `COc1c(Cl)cccc1Nc1c(-c2ccncc2C#C[C@@]2(C)CCCN2C(=O)/C=C/CNC2COC2)[nH]c2c1C(=O)NCC2` and print it.
Response: < 6.00

* * *

target: pEGFR in Ba/F3 cells expressing EGFR exon 20 ASV Ins V769_D770 (Homo sapiens, UniProt P00533, INS769ASV); experiment: Inhibitor activity on EGFR phosphorylation (pEGFR AlphaLISA, 2 h), Ba/F3 EGFR exon 20 ASV insertion; conditions: Ba/F3 EGFR exon 20 ASV Ins V769_D770
Sequence (P00533 with tags, fused parts or gaps INS769ASV): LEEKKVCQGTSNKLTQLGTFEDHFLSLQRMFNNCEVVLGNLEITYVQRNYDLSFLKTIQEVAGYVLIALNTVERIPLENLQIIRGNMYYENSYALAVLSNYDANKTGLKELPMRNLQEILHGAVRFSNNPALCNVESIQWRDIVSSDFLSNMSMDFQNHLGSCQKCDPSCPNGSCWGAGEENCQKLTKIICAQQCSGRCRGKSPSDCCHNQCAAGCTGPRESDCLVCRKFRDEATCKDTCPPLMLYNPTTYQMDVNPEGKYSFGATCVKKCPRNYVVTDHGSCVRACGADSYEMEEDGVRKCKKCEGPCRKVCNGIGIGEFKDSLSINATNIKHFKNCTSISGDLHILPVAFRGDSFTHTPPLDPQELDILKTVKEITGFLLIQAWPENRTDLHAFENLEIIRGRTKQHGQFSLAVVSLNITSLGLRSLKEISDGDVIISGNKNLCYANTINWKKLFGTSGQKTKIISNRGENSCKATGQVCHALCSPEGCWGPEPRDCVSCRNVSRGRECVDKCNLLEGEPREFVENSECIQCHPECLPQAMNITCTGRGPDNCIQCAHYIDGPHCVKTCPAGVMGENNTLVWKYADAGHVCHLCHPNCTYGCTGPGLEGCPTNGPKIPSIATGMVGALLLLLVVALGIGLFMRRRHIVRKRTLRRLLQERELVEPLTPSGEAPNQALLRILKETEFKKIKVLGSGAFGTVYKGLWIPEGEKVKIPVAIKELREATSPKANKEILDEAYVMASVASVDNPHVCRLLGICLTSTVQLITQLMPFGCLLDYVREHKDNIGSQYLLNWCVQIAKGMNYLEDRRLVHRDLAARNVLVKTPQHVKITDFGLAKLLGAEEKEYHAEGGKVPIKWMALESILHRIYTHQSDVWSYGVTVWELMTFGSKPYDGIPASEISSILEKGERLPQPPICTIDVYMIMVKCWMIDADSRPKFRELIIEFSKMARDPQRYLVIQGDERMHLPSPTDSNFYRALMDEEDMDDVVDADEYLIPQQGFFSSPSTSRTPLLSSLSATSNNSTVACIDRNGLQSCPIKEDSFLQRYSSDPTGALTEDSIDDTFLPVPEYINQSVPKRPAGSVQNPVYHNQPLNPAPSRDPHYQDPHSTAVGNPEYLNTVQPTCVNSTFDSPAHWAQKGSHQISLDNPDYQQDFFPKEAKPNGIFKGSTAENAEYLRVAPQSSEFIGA
pIC50: −log10 of the molar value.
Assay Endpoint: pIC50

INSERT INTO results (smiles_repr, result) VALUES
  ('C=CC(=O)N1CCC[C@H]1COc1cnccc1-c1[nH]c2c(c1Nc1cccc(F)c1C)C(=O)NCC2', '> 7.00'),
  ('COc1c(Cl)cccc1Nc1c(-c2ccncc2C#CC2(C(F)(F)F)CC2)[nH]c2c1C(=O)NCC2', '> 7.00'),
  ('C=CC(=O)NC1(C#Cc2cnccc2-c2[nH]c3c(c2Nc2cccc(Cl)c2OC)C(=O)NCC3)CC1', '> 7.00');

Query: Retrieve pIC50 measured for `COc1c(F)cccc1Nc1c(-c2ccncc2OCc2ccnn2C)[nH]c2c1C(=O)NCC2` and print it.
Response: 6.00 to 7.00

Query: Retrieve pIC50 measured for `COc1c(F)cccc1Nc1c(-c2ccncc2OCc2ncc(C)cn2)[nH]c2c1C(=O)NCC2` and print it.
Response: > 7.00

Query: Retrieve pIC50 measured for `COc1c(Cl)cccc1Nc1c(-c2ccncc2C#CC2(C)COC2)[nH]c2c1C(=O)NCC2` and print it.
Response: > 7.00

Query: Retrieve pIC50 measured for `COc1c(F)cccc1Nc1c(-c2ccncc2OCc2csc3nccn23)[nH]c2c1C(=O)NCC2` and print it.
Response: < 6.00

* * *

molecular target: Ba/F3 cells with EGFR exon 20 ASV Ins V769_D770 (Homo sapiens, UniProt P00533, INS769ASV); experiment: EGFR activity: Ba/F3 cell viability (CellTiter-Glo, 72 h), EGFR exon 20 ASV insertion; details: EGFR exon 20 ASV Ins V769_D770, cell viability, read-out: BaF3 ASV IC50
pIC50: −log10 of the molar value.
Recorded measurements of pIC50, one per entry

Some solved cases for reference:
INSERT INTO assay_data (molecule, assay_endpoint, result) VALUES
  ('COc1c(Cl)cc(F)cc1Nc1c(-c2ccncc2C#CC23CC(CN2C(=O)/C=C/CN(C)C)C3)[nH]c2c1C(=O)NCC2', 'pIC50', '> 7.00'),
  ('CC#CC(=O)N1CC[C@@H]1COc1cnccc1-c1[nH]c2c(c1Nc1cccc(Cl)c1F)C(=O)NCC2', 'pIC50', '> 7.00'),
  ('C=CC(=O)NC1(C#Cc2cnccc2-c2[nH]c3c(c2Nc2cccc(Cl)c2OC)C(=O)NCC3)CC(F)(F)C1', 'pIC50', '> 7.00'),
  ('C=CC(=O)NC1(C#Cc2cnccc2-c2[nH]c3c(c2Nc2cccc(Cl)c2OC)C(=O)NCC3)COC1', 'pIC50', '> 7.00'),
  ('C=CC(=O)N1CCN(C)C[C@@H]1COc1cnccc1-c1[nH]c2c(c1Nc1cccc(F)c1OC)C(=O)NCC2', 'pIC50', '< 6.00'),
  ('COc1c(Cl)cccc1Nc1c(-c2ccncc2C#C[C@@H]2CN(C)CCO2)[nH]c2c1C(=O)NCC2', 'pIC50', '> 7.00');

Query: Retrieve pIC50 measured for `COc1c(F)cccc1Nc1c(-c2ccncc2C#CC2(NC(=O)/C=C/CN(C)C)COC2)[nH]c2c1C(=O)NCC2` and print it.
Response: 6.00 to 7.00

Query: Retrieve pIC50 measured for `COc1c(Cl)cc(F)cc1Nc1c(-c2ccncc2C#C[C@@]2(C)CCCN2C(=O)/C=C/CN(C)C)[nH]c2c1C(=O)NCC2` and print it.
Response: > 7.00

Query: Retrieve pIC50 measured for Cc1c(F)cccc1Nc1c(-c2ccncc2C#CC2CCOC2)[nH]c2c1C(=O)NCC2 (centres unmarked) and print it.
Response: 6.00 to 7.00

Query: Retrieve pIC50 measured for `COc1c(F)cccc1Nc1c(-c2ccncc2C#CC(C)(C)NC(=O)/C=C/CN2CCN(C)CC2)[nH]c2c1C(=O)NCC2` and print it.
Response: < 6.00

Query: Retrieve pIC50 measured for `COc1c(Cl)cccc1Nc1c(-c2ccncc2C#CC2(OC)COC2)[nH]c2c1C(=O)NCC2` and print it.
Response: > 7.00

Query: Retrieve pIC50 measured for `COc1c(F)cccc1Nc1c(-c2ccncc2C#C[C@@]2(C)CCCN2C(=O)/C=C/CN2CC[C@@H](OC)C2)[nH]c2c1C(=O)NCC2` and print it.
Response: > 7.00

Query: Retrieve pIC50 measured for `C=C(F)C(=O)N1CC[C@@H]1COc1cnccc1-c1[nH]c2c(c1Nc1cccc(Cl)c1OC)C(=O)NCC2` and print it.
Response: > 7.00

Query: Retrieve pIC50 measured for `C=CC(=O)NC1(C#Cc2cnccc2-c2[nH]c3c(c2Nc2cccc(F)c2OC)C(=O)NCC3)CN(C)C1` and print it.
Response: 6.00 to 7.00

* * *

biological target: Ba/F3 cells with EGFR WT (Homo sapiens); assay: EGFR activity: Ba/F3 cell viability (CellTiter-Glo, 72 h), EGFR WT; details: read-out: BaF3 WT IC50
pIC50: −log10 of the molar value.
Recorded measurements of pIC50, one per entry

Some solved cases for reference:
INSERT INTO assay_data (molecule, result) VALUES
  ('CC#CC(=O)N1CC[C@@]1(C)COc1cnccc1-c1[nH]c2c(c1Nc1cccc(Cl)c1OC)C(=O)NCC2', '< 6.00'),
  ('C=CC(=O)N1CCC[C@H]1COc1cnccc1-c1[nH]c2c(c1Nc1cccc(Cl)c1OC)C(=O)NCC2 [Compound 138b]', '6.00 to 7.00'),
  ('C=CC(=O)N1CCC1C#Cc1cnccc1-c1[nH]c2c(c1Nc1cccc(F)c1OC)C(=O)NCC2 (stereo not shown)', '> 7.00'),
  ('CC#CC(=O)N1CC[C@@H]1C#Cc1cnccc1-c1[nH]c2c(c1Nc1cccc(Cl)c1OC)C(=O)NCC2', '6.00 to 7.00'),
  ('COc1c(F)cccc1Nc1c(-c2ccncc2OCc2ncco2)[nH]c2c1C(=O)NCC2', '6.00 to 7.00'),
  ('COc1c(F)cccc1Nc1c(-c2ccncc2C#C[C@@H]2CCCO2)[nH]c2c1C(=O)NCC2 (single isomer, unassigned) [Compound 148a]', '< 6.00'),
  ('Cc1c(F)cccc1Nc1c(-c2ccncc2C#CC2CCOCC2)[nH]c2c1C(=O)NCC2', '< 6.00'),
  ('COc1c(Cl)cc(F)cc1Nc1c(-c2ccncc2C#C[C@@]2(C)CCCN2C(=O)/C=C/CN(C)C)[nH]c2c1C(=O)NCC2', '6.00 to 7.00'),
  ('C=CC(=O)N1[C@H](C#Cc2cnccc2-c2[nH]c3c(c2Nc2cccc(F)c2OC)C(=O)NCC3)CC[C@@H]1C', '> 7.00'),
  ('COc1c(F)cccc1Nc1c(-c2ccncc2C#CC(C)(C)OC)[nH]c2c1C(=O)NCC2', '< 6.00');

Query: Retrieve pIC50 measured for `COc1c(F)cccc1Nc1c(-c2ccncc2C#C[C@@H]2CCN2C(=O)/C=C/CN(C)C)[nH]c2c1C(=O)NCC2` and print it.
Response: < 6.00

Query: Retrieve pIC50 measured for `COc1c(F)cccc1Nc1c(-c2ccncc2C#C[C@H]2CCN2C(=O)/C=C/CN(C)C)[nH]c2c1C(=O)NCC2` and print it.
Response: 6.00 to 7.00

Query: Retrieve pIC50 measured for `COc1c(F)cccc1Nc1c(-c2ccncc2OCc2nccn2C)[nH]c2c1C(=O)NCC2` and print it.
Response: < 6.00

Query: Retrieve pIC50 measured for `CCC(=O)N1CCC[C@H]1COc1cnccc1-c1[nH]c2c(c1Nc1cccc(Cl)c1OC)C(=O)NCC2` and print it.
Response: < 6.00

Query: Retrieve pIC50 measured for `Cc1c(F)cccc1Nc1c(-c2ccncc2C#CC2CC2)[nH]c2c1C(=O)NCC2` and print it.
Response: < 6.00

Query: Retrieve pIC50 measured for `C=CC(=O)N1[C@@H](COc2cnccc2-c2[nH]c3c(c2Nc2cccc(Cl)c2OC)C(=O)NCC3)C[C@@H]1C` and print it.
Response: > 7.00

Query: Retrieve pIC50 measured for `C=CC(=O)N1CC(C)(C)C[C@@H]1C#Cc1cnccc1-c1[nH]c2c(c1Nc1cccc(Cl)c1OC)C(=O)NCC2` and print it.
Response: > 7.00

Query: Retrieve pIC50 measured for `COc1c(F)cccc1Nc1c(-c2ccncc2OC[C@@]2(C)CCN2C(=O)/C=C/CN(C)C)[nH]c2c1C(=O)NCC2` and print it.
Response: 6.00 to 7.00

Query: Retrieve pIC50 measured for COc1c(Cl)cccc1Nc1c(-c2ccncc2OC[C@H]2CCCN2S(C)(=O)=O)[nH]c2c1C(=O)NCC2 [Compound 142b] and print it.
Response: 6.00 to 7.00

Query: Retrieve pIC50 measured for C=CC(=O)N1CCC[C@@H]1C#Cc1cnccc1-c1[nH]c2c(c1Nc1cccc(F)c1OC)C(=O)NCC2 [Compound 147b] and print it.
Response: 6.00 to 7.00

Query: Retrieve pIC50 measured for `COc1c(F)cccc1Nc1c(-c2ccncc2C#CC(C)(C)NC(=O)/C=C/CN2CCOCC2)[nH]c2c1C(=O)NCC2` and print it.
Response: < 6.00

Query: Retrieve pIC50 measured for `C=CC(=O)N1CCOC[C@H]1COc1cnccc1-c1[nH]c2c(c1Nc1cccc(F)c1OC)C(=O)NCC2` and print it.
Response: 6.00 to 7.00

Query: Retrieve pIC50 measured for `C=CC(=O)N1[C@H]2CC[C@H](C2)[C@@H]1C#Cc1cnccc1-c1[nH]c2c(c1Nc1cccc(F)c1OC)C(=O)NCC2` and print it.
Response: 6.00 to 7.00

Query: Retrieve pIC50 measured for `COc1c(F)cccc1Nc1c(-c2ccncc2C#CC(C)(C)NC(=O)/C=C/CN2CCCC2)[nH]c2c1C(=O)NCC2` and print it.
Response: 6.00 to 7.00

Query: Retrieve pIC50 measured for `C=CC(=O)N1CCCC[C@@H]1COc1cnccc1-c1[nH]c2c(c1Nc1cccc(F)c1C)C(=O)NCC2` and print it.
Response: 6.00 to 7.00

Query: Retrieve pIC50 measured for `COc1c(F)cccc1Nc1c(-c2ccncc2C#C[C@@]2(C)COCCN2C(=O)/C=C/CN(C)C)[nH]c2c1C(=O)NCC2` and print it.
Response: < 6.00

Query: Retrieve pIC50 measured for `CC#CC(=O)N1CC[C@H]1C#Cc1cnccc1-c1[nH]c2c(c1Nc1cccc(Cl)c1OC)C(=O)NCC2` and print it.
Response: 6.00 to 7.00

Query: Retrieve pIC50 measured for `Cc1c(F)cccc1Nc1c(-c2ccncc2C#C[C@@]2(C)CCCN2C(=O)/C=C/CN(C)C)[nH]c2c1C(=O)NCC2` and print it.
Response: 6.00 to 7.00
